test system: T-47D breast; experiment: NCI-60 one-dose screen, 48 h; details: 10 µM unless noted
The panel holds about 83,000 compounds, 20% with a hit somewhere; the sample as a whole holds those more often. The source made the active and inactive calls. Rule for the calls: active = growth percent below 10; inactive = the rest.
Classes used: active, inactive

compound=O=C(NCCCN1CCCCC1)c1ccc(-c2nc3ccc4[nH]ncc4c3c3c2CCCC3)cc1 measured_target="T-47D breast" label_class=inactive
compound=O=[N+]([O-])c1cc(C(F)(F)F)ccc1Sc1ccc(C(F)(F)F)cc1[N+](=O)[O-] measured_target="T-47D breast" label_class=inactive
compound=C=CCN1C=CC(=O)[C@H](O[Si](C)(C)C(C)(C)C)[C@@H]1/C=C/c1ccccc1 measured_target="T-47D breast" label_class=active
compound=CCOC(=O)n1cc(-c2nonc2-c2cn(C)c3ccc(OC)cc23)c2cc(F)ccc21 measured_target="T-47D breast" label_class=inactive
compound=CC(C)=CCc1cc(O)c(O)c2oc3cc(O)cc(O)c3c(=O)c12 measured_target="T-47D breast" label_class=inactive
compound="COc1ccc(/C=N/C2=C(C#N)C(c3ccccc3)c3c(ccc4ccccc34)O2)cc1 (centres undefined)" measured_target="T-47D breast" label_class=inactive
compound="O=C1OCC2=C1C(c1cccc(C(F)(F)F)c1)c1cc3c(cc1N2CCO)CCC3 (centres undefined)" measured_target="T-47D breast" label_class=inactive
compound=COc1ccc(Nc2nn3c(SCC(=O)c4ccc(C)cc4)nnc3s2)cc1 measured_target="T-47D breast" label_class=inactive
compound=COc1cc(/C=N/NC(=O)CCN2c3ccccc3Sc3ccccc32)cc(OC)c1OC measured_target="T-47D breast" label_class=inactive

====

Known growth of a selection of molecules
tested on: SK-OV-3 ovarian; test: NCI-60 one-dose screen, 48 h (100 = growth as untreated, 0 = no growth, -100 = all killed); conditions: 10 µM unless noted
About 83,000 compounds went through this panel and 20% of them were active in at least one assay; those are over-represented in the sample as a whole. Active and inactive are the calls of the source. Rule for the calls: active = growth percent below 10; inactive = the rest.
Property Measured: growth

molecule=O=C(NNc1ccccc1)c1ncc[nH]1 property_measured=growth data_value="81.2% (inactive)"
molecule=COc1ccc(CN2CCc3c(Cl)nc(N)nc3C2=O)c(OC)c1 property_measured=growth data_value="8.93% [100 µM] (active)"
molecule=Cc1nc2cccc(NCCCCC(=O)NO)c2c(=O)n1-c1ccccc1 property_measured=growth data_value="50.8% (inactive)"
molecule=COc1ccc(C/C(C)=C(/c2ccc(OCCN3CCCCCC3)cc2)c2ccc(OC(=O)c3ccccc3)cc2)cc1 property_measured=growth data_value="93.7% (inactive)"
molecule=Cn1cc2c(=O)nc3c(-c4nc5ccccc5[nH]4)n[nH]n3c2n1 property_measured=growth data_value="85.2% (inactive)"
molecule=COc1ccc(-c2ccccc2)cc1-c1c(Nc2cc(Cl)cc(Cl)c2O)c(=O)c1=O property_measured=growth data_value="-10.8% (active)"
molecule=Cc1nc2sc(C(=O)Nc3cccc4ccccc34)c(N)c2cc1C(=O)/C=C/c1ccccc1 property_measured=growth data_value="27.1% (inactive)"
molecule=CCCCC#Cc1c(/C=C(\CCCC)SCC)n(C)c(=O)[nH]c1=O property_measured=growth data_value="106% (inactive)"
molecule=N=C(N)c1ccc(-c2ccc(-c3ccc(Cl)c(Cl)c3)s2)cc1 property_measured=growth data_value="94.6% (inactive)"
molecule=c1ccc(Cc2cccc[n+]2C(c2ccccc2)c2ccccc2)cc1 property_measured=growth data_value="52.1% (inactive)"
molecule="COc1ccc(C(c2cc(OC)c(OC)c(OC)c2)n2ccnc2)cc1O (stereo unspecified)" property_measured=growth data_value="21.8% (inactive)"
molecule=COc1ccc(-c2nc(Cl)c3c(C)nn(-c4ccc(F)cc4)c3n2)cc1 property_measured=growth data_value="102% (inactive)"
molecule="CC(=O)N1N=C(c2ccc(Nc3nc(Nc4ccc(F)cc4)nc(Nc4ccc(Cl)cc4)n3)cc2)CC1c1ccc(N(C)C)cc1 (stereo unspecified)" property_measured=growth data_value="85.1% (inactive)"
molecule="CC(=O)N1N=C(c2ccc(Nc3nc(Nc4ccc(F)cc4)nc(Nc4ccc(F)cc4)n3)cc2)CC1c1ccccc1 (stereo unspecified)" property_measured=growth data_value="89.2% (inactive)"
molecule="COc1ccc(/C=N/C2=C(C#N)C(c3ccccc3)c3c(ccc4ccccc34)O2)cc1 (stereo unspecified)" property_measured=growth data_value="45.3% (inactive)"
molecule=CNC(=O)c1cc(Oc2ccc3nc(NC(=O)Nc4ccc(C(F)(F)F)cc4)sc3c2)ccn1 property_measured=growth data_value="105% (inactive)"
molecule="O=C1OCC2=C1C(c1cccc(C(F)(F)F)c1)c1cc3c(cc1N2CCO)OCCO3 (stereo unspecified)" property_measured=growth data_value="16.1% (inactive)"
molecule=Cc1ccc(-c2nc(C#N)c(S(=O)(=O)N(C)C)o2)cc1 property_measured=growth data_value="102% (inactive)"
molecule="CN(Cc1ccccc1)c1nc(Cl)c(C2CC(c3ccc(F)cc3)=NN2C=O)s1 (stereo unspecified)" property_measured=growth data_value="113% (inactive)"
molecule=CCOC(=O)c1cnn(-c2ccc(S(N)(=O)=O)cc2)c1N property_measured=growth data_value="104% (inactive)"
molecule=COc1ccc(C(=O)N/N=C/c2ccc(O)cc2O)cc1Nc1ccnc(C(F)(F)F)c1 property_measured=growth data_value="19.7% (inactive)"
